Assay: chemical genetic growth profiling, strain panel (AID 1159580);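 note: tested at 20 µM; growth read once vehicle control cultures reached saturation at 30 °C; 1 = growth at the plate median or of vehicle wells; lower values mean less growth of the strain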
Settings: S. cerevisiae deletion strains, growth OD, locus YNL128W, strain TEP1
Hit rate of the full screen: of about 5,500 compounds, about 2,000 (36%) were called active. Not shown: some 18% with an inconclusive outcome. Cut-off read from the data, not from the text of the source: active = normalized growth mostly below about 0.91 (no sharp cut-off); inconclusive = no clear call, values can overlap the other calls; inactive = mostly above about 0.92. The list shows a part of the results.
Lab note: assign the record to one of active, inactive

Example results:
COc1ccc(Cl)cc1C(=O)NCCc1ccc(S(=O)(=O)NC(=O)NC2CCCCC2)cc1 :: inactive
CC(C)c1c(O)c(-c2cc3c(c(C(C)C)c2O)CCC2C(C)(C)CCC[C@]32C)cc2c1CCC1C(C)(C)CCC[C@]21C (stereo partly drawn) :: inactive
O=S(=O)(c1cccc2c(I)cccc12)N1CCCNCC1 :: inactive

Exam item: // outcome(item) with item = `Cc1cc(OC(=O)c2c(C)cc(OC(=O)c3c(C)cc(O)cc3O)cc2O)cc(O)c1C(=O)O`
Marked response: inactive

Exam item: // outcome(item) with item = `Cn1[nH]c(=O)cc1C(=O)NN`
Marked response: inactive

Exam item: // outcome(item) with item = `FC(F)(F)c1cc(CO[C@H]2CCCN[C@H]2c2ccccc2)cc(C(F)(F)F)c1`
Marked response: inactive

Exam item: // outcome(item) with item = `NC(N)=NC(=O)c1nc(Cl)c(N2CCCCCC2)nc1N`
Marked response: inactive

Exam item: // outcome(item) with item = COc1cc(=O)n(C)c2c(OCC(O)C(C)(C)O)cccc12 (stereo not drawn)
Marked response: inactive

* * *

Test: chemical genetic growth profiling, strain panel (AID 1159580)
Conditions: S. cerevisiae deletion strains, growth OD, locus YBR135W, strain CKS1, active compounds read low
Screen size: about 5,500 compounds; about 2,000 (36%) were called active. Not shown: some 18% with an inconclusive outcome. The list shows a part of the results.
Recorded normalized growth values for a group of molecules are listed next.
// keep it numeric: no unit symbol after the value

Some entries whose results are on file:
FC(F)(F)c1cccc(NC(=S)NN=C2CCCCCC2)c1 :: 0.994
CC(C)(C)C(=O)NC(=S)N/N=C\c1cc(Cl)cc(Cl)c1O :: 0.907
Cc1cc(Oc2ccc(C(F)(F)F)cc2NS(C)(=O)=O)cc(C)c1Cl :: 0.995
FC(F)(F)c1ccc(N2CCc3ccccc3C2)c(NC(=S)Nc2cc(Cl)cc(Cl)c2)c1 :: 0.978
COCCCNC(=S)N/N=C\c1cc(Cl)cc(Cl)c1O :: 0.957
OC1(C(F)(F)F)CC(c2ccc3ccccc3c2)=NN1 (configuration not stated) :: 0.263
Cc1nnc2n1N=C(c1ccc(CC(C)C)cc1)C(C)S2 (configuration not stated) :: 0.964
CCCCNC(=S)N/N=C\c1cc(Cl)cc(Cl)c1O :: 0.922

Exam item: Return reported normalized growth; argument: `COCCCNC(=S)N/N=C\c1cc(Br)ccc1O`
Marked response: 0.962

Exam item: Return reported normalized growth; argument: `O=C1Nc2ccccc2/C1=C/c1ccc(Oc2ccccc2)nc1`
Marked response: 0.957

Exam item: Return reported normalized growth; argument: `CCOC(=O)N/N=C\c1cc(Cl)cc(Cl)c1O`
Marked response: 0.928

Exam item: Return reported normalized growth; argument: `O=C(Nc1ccccc1)Nc1ccc(Cl)cc1[N+](=O)[O-]`
Marked response: 0.976

* * *

Experiment: chemical genetic growth profiling, strain panel (AID 1159580);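 note: tested at 20 µM; growth read once vehicle control cultures reached saturation at 30 °C; 1 = growth at the plate median or of vehicle wells; lower values mean less growth of the strain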
Conditions: S. cerevisiae deletion strains, growth OD, locus YBL061C, strain skt5, active compounds read low
Among all 5,500 compounds or so, about 2,000 (36%) were called active. Not shown: some 18% with an inconclusive outcome. The list shows a part of the results.
Recorded normalized growth values for a group of compounds are listed next.

Some entries whose results are on file:
CC1O[C@@H](Oc2c(-c3ccc(O)c(O)c3)oc3cc(O)cc(O)c3c2=O)[C@H](O)[C@H](O)[C@H]1O (stereo not given in full) :: 0.993 (inactive)
CCc1cc(C(N)=S)ccn1 :: 1.01 (inactive)
O=c1c(O)c(-c2ccc(O)c(O)c2)oc2cc(O)cc(O)c12 :: 0.832 (active)
OC1CC2CCCC(C1)N2Cc1ccccc1 (stereo not given) :: 0.932 (inactive)
O=C1[O][Bi][O]c2ccccc21 :: 1.04 (inactive)

Exam item: Return reported normalized growth; argument: C=CC1C2=CCOC(=O)C2=COC1OC1OC(CO)C(O)C(O)C1O (stereo not given)
Marked response: 1.01 (inactive)

Exam item: Return reported normalized growth; argument: `O=c1c(O)c(-c2ccc(O)c(O)c2)oc2c(O[C@@H]3O[C@H](CO)[C@H](O)[C@@H](O)[C@H]3O)c(O)cc(O)c12`
Marked response: 1.01 (inactive)

Exam item: Return reported normalized growth; argument: `CC(=O)OCC1=C(C(=O)O)N2C(=O)[C@@H](NC(=O)Cc3cccs3)[C@H]2SC1`
Marked response: 1.03 (inactive)

Exam item: Return reported normalized growth; argument: C[C@]12CCC3c4ccc(O)cc4CCC3C1CC[C@@H]2O (stereo not given in full)
Marked response: 0.961 (inactive)

Exam item: Return reported normalized growth; argument: `CN1C[C@H](C(=O)N[C@]2(C)O[C@@]3(O)[C@@H]4CCCN4C(=O)[C@H](Cc4ccccc4)N3C2=O)C[C@@H]2c3cccc4[nH]cc(c34)C[C@H]21`
Marked response: 0.996 (inactive)

Exam item: Return reported normalized growth; argument: N#Cc1nn(-c2c(Cl)cc(C(F)(F)F)cc2Cl)c(N)c1S(=O)C(F)(F)F (stereo not given)
Marked response: 0.99 (inactive)

Exam item: Return reported normalized growth; argument: NS(=O)(=O)c1cc(C2(O)NC(=O)c3ccccc32)ccc1Cl (stereo not given)
Marked response: 0.996 (inactive)

Exam item: Return reported normalized growth; argument: `NC(N)=NC(=O)c1nc(Cl)c(N)nc1N`
Marked response: 1.04 (inactive)

Exam item: Return reported normalized growth; argument: `COC(=O)c1c(C)cc(OC)cc1O`
Marked response: 0.988 (inactive)

Exam item: Return reported normalized growth; argument: C[C@@H]1O[C@@H](OC[C@H]2OC(Oc3c(-c4ccc(O)c(O)c4)oc4cc(O)cc(O)c4c3=O)[C@H](O)[C@@H](O)[C@@H]2O)[C@H](O)[C@H](O)[C@H]1O (stereo not given in full)
Marked response: 1.01 (inactive)

Exam item: Return reported normalized growth; argument: `COC(=O)c1c(C)cc(O)cc1O`
Marked response: 1.02 (inactive)

Exam item: Return reported normalized growth; argument: `O=C(O[C@@H]1Cc2c(O)cc(O)cc2O[C@@H]1c1cc(O)c(=O)c2c(O)c(O)cc([C@H]3Oc4cc(O)cc(O)c4C[C@H]3O)c2c1)c1cc(O)c(O)c(O)c1`
Marked response: 0.531 (active)

Exam item: Return reported normalized growth; argument: O=C(OC1Cc2c(O)cc(O)cc2OC1c1cc(=O)c(O)c2c(O)c(O)cc(C3Oc4cc(O)cc(O)c4CC3O)c2c1)c1cc(O)c(O)c(O)c1 (stereo not given)
Marked response: 0.932 (inactive)

Exam item: Return reported normalized growth; argument: `O=c1cc(-c2ccc(O)cc2)oc2cc(O[C@@H]3O[C@H](CO)[C@@H](O)[C@H](O)[C@H]3O)cc(O)c12`
Marked response: 1.01 (inactive)

Exam item: Return reported normalized growth; argument: `Cc1cc(C2CCCCC2)n(O)c(=O)c1`
Marked response: 0.0672 (active)

* * *

Test: chemical genetic growth profiling, strain panel (AID 1159580);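 note: tested at 20 µM; growth read once vehicle control cultures reached saturation at 30 °C; 1 = growth at the plate median or of vehicle wells; lower values mean less growth of the strain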
Details: S. cerevisiae deletion strains, growth OD, locus YPL106C, strain sse1, active compounds read low
The campaign covered roughly 5,500 compounds. About 2,000 (36%) were called active. Roughly 18% stayed inconclusive and do not appear here. This is one part of the list.
Readout: normalized growth
// keep it numeric: no unit symbol after the value

C[C@@H]([C@H](O)c1ccccc1)N(C)C :: 1.03
Cc1ccccc1OCC(O)CO (centres undefined) :: 0.958
CNC(C)C(O)c1ccccc1 (centres undefined) :: 1.01

Exam item: Return reported normalized growth; argument: NS(=O)(=O)c1cc(C2(O)NC(=O)c3ccccc32)ccc1Cl (centres undefined)
Marked response: 0.948

* * *

Assay: chemical genetic growth profiling, strain panel (AID 1159580);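 note: tested at 20 µM; growth read once vehicle control cultures reached saturation at 30 °C; 1 = growth at the plate median or of vehicle wells; lower values mean less growth of the strain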
Settings: S. cerevisiae deletion strains, growth OD, locus YEL061C, strain CIN8, active compounds read low
About 2,000 (36%) of roughly 5,500 compounds were called active. Roughly 18% stayed inconclusive and do not appear here. The list shows a part of the results.
Readout: normalized growth

Exam item: Return reported normalized growth; argument: `COc1ccc2ccc(=O)oc2c1`
Marked response: 1.01 (inactive)

Exam item: Return reported normalized growth; argument: `CC1(C)O[C@H]2CC(=O)OC[C@]23[C@H]2CC[C@@]4(C)[C@H](c5ccoc5)OC(=O)[C@H]5O[C@]54[C@]2(C)C(=O)C[C@@H]13`
Marked response: 1 (inactive)

Exam item: Return reported normalized growth; argument: `COc1c(C(C)C)oc2cc3oc(=O)ccc3cc12`
Marked response: 0.933 (inactive)

Exam item: Return reported normalized growth; argument: CC1(C)C(=O)C=C[C@@]2(C)C1C=C[C@]1(C)C2CC[C@@]2(C)[C@H](c3ccoc3)OC(=O)C3OC321 (some centres undefined)
Marked response: 0.983 (inactive)

Exam item: Return reported normalized growth; argument: CC1(C)C(=O)C=C[C@@]2(C)C1CC(=O)[C@]1(C)C2CC[C@@]2(C)[C@H](c3ccoc3)OC(=O)[C@H]3O[C@]321 (some centres undefined)
Marked response: 0.986 (inactive)

Exam item: Return reported normalized growth; argument: COc1ccc2c(c1C(C)C)CCC1C(C)(C)C(=O)CCC21C (centres undefined)
Marked response: 0.988 (inactive)

Exam item: Return reported normalized growth; argument: `Cn1c2c(c3c1CCCC3)CCCC2`
Marked response: 0.988 (inactive)

Exam item: Return reported normalized growth; argument: CC(C)c1c(O)c(-c2cc3c(c(C(C)C)c2O)CCC2C(C)(C)CCC[C@]32C)cc2c1CCC1C(C)(C)CCC[C@]21C (some centres undefined)
Marked response: 1.01 (inactive)

Exam item: Return reported normalized growth; argument: NC(=O)NCCCC(N)C(=O)O (centres undefined)
Marked response: 1.01 (inactive)

Source: PubChem BioAssay AID1159580
